Just for reference, ChEMBL document CHEMBL3988442 is where these values come from.

Record form. Attribute: Percent Effect. Fill in for each entry.
- TARGET_OR_SYSTEM: Lysine--tRNA ligase (Plasmodium falciparum (isolate 3D7))
- ASSAY_REMARKS: Pf-KRS-1 (Lysyl-RNA Synthetase-1, KRS-1, cytosolic KRS) from Plasmodium falciparum. Inhibitor assay, 384 well plate, luminescence read.
- Assay type: functional
- Design: scale not given: in the data most compounds retested in dose-response had high values
- SETTINGS: 30 µM
In all, about 69,000 compounds went through this assay and about 50 (0.07%) showed an effect of 50% or more. The entries come from a sample that favours strong results as a whole.
Output spec: scalar in %, unitless text.

Record request: Percent Effect value, item CCn1ncnc1C1CC(=O)NCc2nc(N3CCCC3)sc21 (stereo not drawn) 2.27

Dear colleague, I am looking for the recorded Percent Effect of the following compound: "COc1cccc(-c2n[nH]c3c2CN(C(=O)c2cccc(=O)[nH]2)CC3)c1" 55.1

Which value of Percent Effect has been reported for CC(O)(CNc1ccc(Cl)c(C#N)n1)c1ccccc1 (stereo not drawn) in the records? 8.49

Could you share which Percent Effect value was measured for CC(C)Oc1ccccc1C1CC(=O)Nc2nc(N3CCOCC3)sc21 (stereo not drawn) ? 82.6

Need Percent Effect of "CCCn1cc(NC(=O)c2ccc(N(C)CC)cc2)ccc1=O" , thanks. 6.21

For "Fc1cccc(CCN(c2ccc3nnnn3n2)C2CC2)c1" , what is its reported Percent Effect? 5.52

Consider the compound shown here: COc1cccc(C2SCC(=O)Nc3ccsc32)c1OC (stereo not drawn) What is its recorded Percent Effect? 1.9

Look at this compound and give its reported Percent Effect. Cn1cc(C(C)(O)CNc2ccc(Cl)c(C#N)n2)cn1 (stereo not drawn) 18.4

# Percent Effect lookup, item "CCCN(CCc1cccc(F)c1)c1ccc2nnnn2n1" 10.9

So what does the record say about Percent Effect for COc1cccc(C2CC(=O)Nc3nc(N4CCCCC4)sc32)c1OC (stereo not drawn) ? 84.4

Could you share which Percent Effect value was measured for "CC(C)C(=O)N1CCN(C(=O)c2cc(C(C)C)no2)[C@H]2CS(=O)(=O)C[C@H]21" ? 2.34

What value of Percent Effect has been recorded for this entry: "Fc1ccccc1CN1C[C@@H]2OCCN(c3ncccn3)[C@@H]2C1" -1.46

Reported Percent Effect, compound "O=C(NC1CC(F)(F)C1)[C@]12COC[C@H]1CN(Cc1ccsc1)C2" : ____ 3.2

Would you kindly share the measured Percent Effect for "COc1cccc(-c2n[nH]c3c2CN(C(=O)c2cc(C)n(C)n2)CC3)c1" ? -1.18

// query Percent Effect value for entry O=c1[nH]c2c(c(=O)n1C1CCCCC1)CCC2Nc1ccccc1Cl (stereo not drawn) 61.5

// lookup Percent Effect for "CN(C)C(=O)[C@@H]1C[C@@H]2CCN(C3CCOCC3)C[C@H]2O1" 1.18

Recorded Percent Effect for COc1cccc(C2CC(=O)Nc3nc(N)sc32)c1OC (stereo not drawn) , please? 62.7

Give the measured Percent Effect of "Cn1ccnc1NC[C@@H]1CCC[C@@H]2CN(CC3CC3)C[C@@H]21" . 9.69

Bench note: what Percent Effect did O=c1[nH]c2c(c(=O)n1C1CCCCC1)CCC2Nc1ccccn1 (stereo not drawn) show? 28.1

Fill blank: measured Percent Effect of the compound "CCCn1cc(NC(=O)c2ccc(S(=O)(=O)CC)cc2)ccc1=O" is ____. 78.9

# Percent Effect lookup, item COc1cccc(C2SCC(=O)Nc3n[nH]cc32)c1OC(C)C (stereo not drawn) 1.84

I have this compound here, "COCCN1CCO[C@@H]2CN(Cc3ccc(C)o3)C[C@@H]2C1" , and I need its recorded Percent Effect. 3.96

Would you kindly share the measured Percent Effect for CC(O)(CNc1ccc(Cl)c(C#N)n1)c1ccsc1 (stereo not drawn) ? 59

Given the entry CCOc1cccc(C2CC(=O)NCc3nc(N4CCCC4)sc32)c1 (stereo not drawn) , report its measured Percent Effect. 1.45

Quick one: Percent Effect for "CCCn1cc(NC(=O)c2ccc(S(C)(=O)=O)cc2)ccc1=O" ? 79.3

Look up Percent Effect: O=c1[nH]c2c(c(=O)n1C1CCCCC1)CCC2Nc1ccccc1 (stereo not drawn) 24.4

I am curious: what Percent Effect value has been reported for "Cc1cccc(S(=O)(=O)N2CC[C@H]3[C@H]2CCN3c2ncccn2)c1" ? 1.51

Percent Effect lookup needed for "CCCn1cc(NC(=O)c2ccncc2)ccc1=O" , thanks. 36.1

Could you share which Percent Effect value was measured for "CCCN1CCN(C(=O)c2cccc3cccnc23)[C@H]2CS(=O)(=O)C[C@H]21" ? -0.361

What does the record list as Percent Effect for "CCCn1cc(NC(=O)c2cccnc2O)ccc1=O" ? 10.4

Which measured Percent Effect value corresponds to O=c1[nH]c2c(c(=O)n1C1CCCCC1)CCC2NCCc1ccccc1 (stereo not drawn) ? 55.6

Can you look up the measured Percent Effect of "c1ccc(CO[C@@H]2CN(Cc3ccoc3)[C@@H]3COC[C@@H]32)nc1" for me? -0.514

Recorded Percent Effect of CC(C)Oc1ccccc1C1CC(=O)Nc2c1cnn2C (stereo not drawn) , please. 1.57
